Value source: PubChem BioAssay (NCI)

Listing of recorded TGI by entry.
- Tested on: MOLT-4 leukemia
- experiment notes: NCI tumour cell line growth inhibition, 48 h
measured property: TGI

INSERT INTO results (compound, measured_property, measurement) VALUES
  ('COc1ccc(-c2cc(=O)c3c(C)ccnc3[nH]2)cc1', 'TGI', '50 µM'),
  ('CC(C)NC1CCCCC2c3ccccc3C12O (centres undefined)', 'TGI', '> 100 µM'),
  ('O=c1[nH]nc(-c2ccc3ccccc3c2)[nH]1', 'TGI', '> 100 µM'),
  ('COC(=O)C12CCCN1CCC2', 'TGI', '> 100 µM'),
  ('Nc1nc(N)c2cc(S(=O)(=O)c3cccc(C(F)(F)F)c3)ccc2n1', 'TGI', '> 100 µM'),
  ('C[C@]12CC[C@H]3[C@@H](CC=C4C[C@@H](N5CCCC5)CC[C@@]43C)[C@@H]1C/C(=C\c1ccc([N+](=O)[O-])cc1)[C@@H]2O', 'TGI', '4.99 µM'),
  ('c1ccc(C/C(=N\Nc2nc3ccccc3[nH]2)c2ccccn2)cc1', 'TGI', '6.85 µM'),
  ('Cc1cc[c]([Sb]2[O]C(CO)C(C(O)C(O)C(=O)O)[O]2)cc1 (centres undefined)', 'TGI', '> 100 µM'),
  ('C=C1C(=O)O[C@@H]2C[C@@]3(C)CCC[C@H](C)C3=C[C@H]12 (tested in a mixture with another compound)', 'TGI', '3.73 µM'),
  ('O=C(Nc1ccc(Nc2ccc3c(c2)C(=O)c2ccccc2C3=O)c2c1C(=O)c1ccccc1C2=O)c1ccccc1', 'TGI', '> 69.3 µM'),
  ('CC(C)Cn1cnc2c(N)nc3ccccc3c21', 'TGI', '> 100 µM'),
  ('CCOC(=O)CCCN', 'TGI', '> 100 µM'),
  ('[O-]c1ccccc1C=NCCN=Cc1ccccc1[O-].[O]=[U+2]=[O]', 'TGI', '> 100 µM'),
  ('Cc1cc2c3c(c1)S(=O)(=O)c1cc(Cl)ccc1N3CCC2', 'TGI', '> 100 µM'),
  ('CCOC(=O)N1CCC2(CC1)C[C@](Sc1ccccc1)(C(C)=O)[C@H](C)O2', 'TGI', '> 100 µM'),
  ('COP(=O)(OC)[C@@](O)(c1ccccc1)[C@@H](O)[C@H](O)c1ccccc1', 'TGI', '> 100 µM'),
  ('O=C(Nc1ccc(Cl)cc1)c1cc(S(=O)(=O)Nc2nc3ncccc3[nH]2)c(SSc2cc(Cl)c(C(=O)Nc3ccc(Cl)cc3)cc2S(=O)(=O)Nc2nc3ncccc3[nH]2)cc1Cl', 'TGI', '> 100 µM'),
  ('[N-]=[N+]=NC1C(Cl)C(=O)NC(=O)N1[C@H]1C[C@H](O)[C@@H](CO)O1 (some centres undefined)', 'TGI', '> 100 µM'),
  ('C[N+](C)(N)Cc1nc(-c2ccc(Cl)cc2)no1', 'TGI', '> 100 µM');

----------
- Test system: HT29 colon
- experiment notes: NCI tumour cell line growth inhibition, 48 h
measured property: TGI

INSERT INTO results (molecule, measurement) VALUES
  ('O=S1(=O)[C@H](c2ccccc2)c2c(-c3ccccc3)sc(-c3ccccc3)c2[C@@H]1c1ccccc1', '> 100 µM'),
  ('COc1ccc(C(O)C(c2ccc(OCc3ccccc3)cc2)c2ccc(OCc3ccccc3)cc2)cc1 (stereo unspecified)', '> 100 µM'),
  ('C=C(C)[C@@H]1CC[C@]2(C(=O)OC)CC[C@]3(C)[C@H](CC[C@@H]4[C@@](C)(CCc5nn[nH]n5)[C@H](C(=C)C)CC[C@]43C)[C@@H]12', '73.3 µM'),
  ('O=NN(CC1(O)OCC(O)C(O)C1O)C(Cc1c[nH]c2ccccc12)C(=O)O (stereo unspecified)', '> 100 µM'),
  ('CCN(Cc1ccccc1)c1ccc(/C=C2\COc3ccccc3C2=O)cc1', '> 1000 µM'),
  ('CC(C)N1CCOC(c2ccc(O)c(O)c2)C1 (stereo unspecified)', '> 100 µM');

----------
- System: OVCAR-4 ovarian
- experiment notes: NCI tumour cell line growth inhibition, 48 h
Listing of recorded TGI by entry.
measured property: TGI

INSERT INTO measurements (molecule, measurement) VALUES
  ('O=C1C2C3SC(c4cc5ccccc5cc43)C2C(=O)N1c1ccccc1 (stereo not drawn)', '> 100 µM'),
  ('C[N+](C)(N)Cc1nc(-c2ccc(Cl)cc2)no1', '> 100 µM'),
  ('CN1CCN(c2n[nH]c(=O)c3c2nnn3Cc2ccccc2)CC1', '> 100 µM'),
  ('Cc1cc2c(cc1Cl)SC(=Nc1ccc(Cl)cc1)N(S(=O)(=O)c1ccc(Br)s1)S2(=O)=O', '66.3 µM'),
  ('O=C(c1ccccc1)[C@H]1Nc2ccc(Cl)cc2[C@H]2c3ccccc3O[C@H]21', '32.3 µM'),
  ('CCCN(CCC)C1CC(n2cc(C)c(=O)[nH]c2=O)OC1CO (stereo not drawn)', '> 100 µM'),
  ('C[C@]12CC[C@H]3[C@@H](CC=C4C[C@@H](N5CCCC5)CC[C@@]43C)[C@@H]1C/C(=C\c1ccc([N+](=O)[O-])cc1)[C@@H]2O', '25.4 µM'),
  ('Cc1ccccc1NC(=O)C(=O)C(C1OC(=O)c2ccccc21)[N+](=O)[O-] (stereo not drawn)', '> 100 µM');

----------
- Tested on: SW-620 colon
- experiment notes: NCI tumour cell line growth inhibition, 48 h
measured property: TGI

INSERT INTO results (compound, study_target, measurement) VALUES
  ('O=C1O/C(=C(\Br)c2ccc([N+](=O)[O-])cc2)c2ccccc21', 'SW-620 colon', '> 100 µM'),
  ('Cc1cc(NC(=O)NCCCOc2ccc(N3C(N)=NC(N)=NC3(C)C)cc2Cl)ccc1S(=O)(=O)F', 'SW-620 colon', '> 100 µM'),
  ('c1ccc(C/C(=N\Nc2nc3ccccc3[nH]2)c2ccccn2)cc1', 'SW-620 colon', '15.1 µM'),
  ('Cc1cc(C)c2c(-c3ccccc3)cc(=O)[nH]c2c1', 'SW-620 colon', '> 100 µM'),
  ('CN(N=O)C(=O)NC(CCCCNC(=O)OCc1ccccc1)C(=O)OCc1ccccc1 (configuration not stated)', 'SW-620 colon', '> 100 µM'),
  ('COC(=O)C1=C(C(=O)OC)C23CC4CCC2(C(=O)C1O3)C4(C)C (configuration not stated)', 'SW-620 colon', '> 100 µM'),
  ('Cc1ccc(S(=O)(=O)N(CC(O)COc2ccccc2)c2c(F)c(F)c(F)c(F)c2F)cc1 (configuration not stated)', 'SW-620 colon', '36.2 µM'),
  ('CN(C)CC1CCC/C(=C\c2ccc(Cl)c(Cl)c2)C1=O (configuration not stated)', 'SW-620 colon', '> 29.3 µM'),
  ('COP(=O)(OC)[C@@](O)(c1ccccc1)[C@@H](O)[C@H](O)c1ccccc1', 'SW-620 colon', '> 100 µM'),
  ('OC1C2CN3CCN(C2)CC1(c1ccccc1)C3 (configuration not stated)', 'SW-620 colon', '> 100 µM'),
  ('C[C@]12CCC(=O)C=C1CC[C@@H]1[C@@H]2CC[C@]2(C)C(=O)/C(=C/c3ccc([N+](=O)[O-])cc3)C[C@@H]12', 'SW-620 colon', '> 100 µM'),
  ('Cc1cc(C)c2c(c1)CSCc1cc(C)cc(C)c1-2', 'SW-620 colon', '> 100 µM');

----------
- Tested on: SR leukemia
- experiment notes: NCI tumour cell line growth inhibition, 48 h
Listing of recorded TGI by entry.
measured property: TGI

INSERT INTO assay_data (molecule, study_target, measurement) VALUES
  ('CCOC(=O)c1nc2ccccc2nc1Nc1cc(OC)c(OC)c(OC)c1', 'SR leukemia', '> 100 µM'),
  ('COC1CCC(O)C(CO)O1 (configuration not stated)', 'SR leukemia', '> 100 µM'),
  ('COc1cc2ncnc(Nc3cccc(Br)c3)c2cc1OC', 'SR leukemia', '> 31.6 µM'),
  ('CCOP(=O)(OCC)C(C(=O)OC)C(=O)C(=O)Nc1cccc([N+](=O)[O-])c1 (configuration not stated)', 'SR leukemia', '> 100 µM'),
  ('COc1ccc(Nc2nc3ccccc3nc2-c2cccs2)cc1OC', 'SR leukemia', '> 10 µM'),
  ('N#C/C=C(/NC(=O)Nc1ccccc1)N1CCCC1', 'SR leukemia', '> 100 µM'),
  ('[O-]c1ccccc1C=NCCN=Cc1ccccc1[O-].[O]=[U+2]=[O]', 'SR leukemia', '> 100 µM');
